The entries below come with measured IC50 values attached.
Target: HCV NS3 protease (Hepatitis C virus genotype 1b)
Construct: an NS3/4A complex comprising the NS3 protease domain
Sequence (P26663 1027-1208, other chains not shown): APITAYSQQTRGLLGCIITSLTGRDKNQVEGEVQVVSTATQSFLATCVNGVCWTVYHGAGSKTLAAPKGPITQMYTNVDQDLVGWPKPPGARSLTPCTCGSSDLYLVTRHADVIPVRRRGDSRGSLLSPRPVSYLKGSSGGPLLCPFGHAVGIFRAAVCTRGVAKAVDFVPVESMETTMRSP
Test: Inhibition of NS3 protease (HPLC cleavage assay, NS3/4A complex with Pep4AK, substrate peptide 4AB)
Assay type: biochemical
Details: Table 2 tetrapeptides and tripeptides; read-out: IC50
Give a bare numeral; the unit µM is implied.

# compound, IC50 / µM
data = [
    ("CC(C)COC(=O)N[C@@H](CCC(=O)O)C(=O)N[C@@H](CC(C)C)C(=O)NC(C=O)CC(F)F (some centres unmarked)", 26),
    ("CCC(C)[C@H](NC(=O)OCc1ccccc1)C(=O)N[C@@H](CC(C)C)C(=O)NC(CC(F)F)C(=O)C(=O)O (some centres unmarked)", 1.4),
    ("CC(C)C[C@H](NC(=O)OC(C)(C)C)C(=O)N[C@@H](CC(C)C)C(=O)NC(CC(F)F)C(=O)C(=O)O (some centres unmarked)", 1.2),
    ("CC(C)C[C@H](NC(=O)[C@@H](NC(=O)OCc1ccccc1)C(C)C)C(=O)NC(C=O)CC(F)F (some centres unmarked)", 50),
    ("CC(C)C[C@H](NC(=O)[C@H](CCC(=O)OCc1ccccc1)NC(=O)OC(C)(C)C)C(=O)NC(CC(F)F)C(=O)C(=O)O (some centres unmarked)", 5.8),
]

Lab note: need IC50 for CC[C@@H](C)[C@H](NC(=O)OC(C)(C)C)C(=O)N[C@@H](CC(C)C)C(=O)NC(CC(F)F)C(=O)C(=O)O (some centres unmarked) on HCV NS3 protease (Hepatitis C virus genotype 1b), anyone have it?
0.7

Recorded IC50 for CCCC[C@H](NC(=O)OC(C)(C)C)C(=O)N[C@@H](CC(C)C)C(=O)NC(CC(F)F)C(=O)C(=O)O (some centres unmarked) with HCV NS3 protease (Hepatitis C virus genotype 1b), please?
1.2

Checklist item: IC50 tested on HCV NS3 protease (Hepatitis C virus genotype 1b), entry CCC(C)[C@H](NC(=O)OCc1ccccc1)C(=O)N[C@@H](CC1CCCCC1)C(=O)NC(CC(F)F)C(=O)C(=O)O (some centres unmarked) , value?
1.4
